Measured On: SARM1 (50-724) (Homo sapiens)
Sequence (Q6SZW1 50-724): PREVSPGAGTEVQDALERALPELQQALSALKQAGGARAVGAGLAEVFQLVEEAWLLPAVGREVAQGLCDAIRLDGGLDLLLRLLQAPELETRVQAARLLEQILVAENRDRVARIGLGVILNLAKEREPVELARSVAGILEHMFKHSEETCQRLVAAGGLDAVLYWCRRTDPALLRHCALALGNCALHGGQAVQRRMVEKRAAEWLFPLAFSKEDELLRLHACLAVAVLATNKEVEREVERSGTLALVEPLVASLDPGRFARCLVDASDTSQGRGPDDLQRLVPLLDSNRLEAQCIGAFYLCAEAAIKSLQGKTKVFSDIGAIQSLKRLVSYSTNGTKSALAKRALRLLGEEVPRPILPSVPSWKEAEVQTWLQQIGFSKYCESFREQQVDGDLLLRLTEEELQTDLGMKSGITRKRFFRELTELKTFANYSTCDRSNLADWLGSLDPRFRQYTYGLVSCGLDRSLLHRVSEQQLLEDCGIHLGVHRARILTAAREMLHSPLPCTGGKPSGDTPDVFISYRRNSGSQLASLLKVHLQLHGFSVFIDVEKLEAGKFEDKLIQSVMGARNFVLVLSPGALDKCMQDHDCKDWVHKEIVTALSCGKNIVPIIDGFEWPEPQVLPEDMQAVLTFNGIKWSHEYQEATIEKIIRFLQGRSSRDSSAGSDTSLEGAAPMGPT
Item-by-item account of IC50

# count of solved cases: 3
compound="N#CC1CC1c1ccc2[nH]c(-c3nncn3-c3cnccc3C(F)(F)F)nc2c1F (stereo not shown)" result_value="≤ 100 nM"
compound=Fc1cccc(-n2cnnc2-c2nc3cc(C(F)(F)F)ccc3[nH]2)c1Cl result_value="≤ 100 nM"
compound=NC(=O)C1(c2ccc3[nH]c(-c4nncn4-c4ccc(F)c(F)c4Cl)nc3c2)CC1 result_value="≤ 100 nM"

Q: Reported IC50 for Fc1ccc(OC(F)(F)F)c(-n2cnnc2-c2nc3cc(C(F)(F)F)cc(F)c3[nH]2)c1 : what is it?
Result: ≤ 100 nM
